- system tested: KRAS4B G13D (Homo sapiens, UniProt P01116, G13D)
- Construct: HiBit; expressed in transfected cells; host or cells: GP5d cells (ECACC 95090715), stably transduced with lentivirus, CMV promoter
- Sequence (P01116 1-188 isoform P01116-2 G13D): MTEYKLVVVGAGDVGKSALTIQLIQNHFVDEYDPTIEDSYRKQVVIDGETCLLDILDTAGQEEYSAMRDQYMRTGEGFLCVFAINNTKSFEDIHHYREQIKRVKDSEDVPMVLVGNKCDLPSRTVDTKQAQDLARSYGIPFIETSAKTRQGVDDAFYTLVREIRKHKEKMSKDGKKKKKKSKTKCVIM
- procedure summary: HiBit KRAS4B mutant spectrum degradation assay, KRAS4B G13D in GP5d cells (18 h)
- Type: cell-based
- particulars: KRAS mutation G13D
quantity measured: Dmax at 18 h

{"compound": "Cc1ncsc1-c1ccc([C@H](CO)NC(=O)[C@@H]2C[C@@H](O)CN2C(=O)[C@H](C(C)C)n2cc(OCCCCN3CCCN(c4nccc(-c5noc([C@@]6(C)CCCc7sc(N)c(C#N)c76)n5)n4)[C@@H](C)C3)nn2)cc1 [I-29]", "system tested": "KRAS4B G13D (Homo sapiens, UniProt P01116, G13D)", "quantity measured": "Dmax at 18 h", "test result": "89.7 % Ctrl."}
{"compound": "Cc1ncsc1-c1ccc([C@@H](NC(=O)[C@@H]2C[C@@H](O)CN2C(=O)[C@H](C(C)C)n2cc(OCCCN3CCCN(c4nccc(-c5noc([C@@]6(C)CCCc7sc(N)c(C#N)c76)n5)n4)[C@@H](C)C3)nn2)[C@H](O)C(C)C)cc1 (single isomer, unassigned) [I-43]", "system tested": "KRAS4B G13D (Homo sapiens, UniProt P01116, G13D)", "quantity measured": "Dmax at 18 h", "test result": "90.4 % Ctrl."}
{"compound": "Cc1ncsc1-c1ccc(CNC(=O)[C@@H]2C[C@@H](O)CN2C(=O)[C@@H](NC(=O)CCCCCN2CCCN(c3nccc(-c4noc([C@@]5(C)CCCc6sc(N)c(C#N)c65)n4)n3)[C@@H](C)C2)C(C)(C)C)cc1 [I-47]", "system tested": "KRAS4B G13D (Homo sapiens, UniProt P01116, G13D)", "quantity measured": "Dmax at 18 h", "test result": "90 % Ctrl."}
{"compound": "Cc1ncsc1-c1ccc([C@H](CO)NC(=O)[C@@H]2C[C@@H](O)CN2C(=O)[C@H](C(C)C)n2cc(OCCCC(C)N3CCCN(c4nccc(-c5noc([C@@]6(C)CCCc7sc(N)c(C#N)c76)n5)n4)[C@@H](C)C3)nn2)cc1 (stereo partly shown) [I-30]", "system tested": "KRAS4B G13D (Homo sapiens, UniProt P01116, G13D)", "quantity measured": "Dmax at 18 h", "test result": "91.9 % Ctrl."}
